system: A549; experiment: cells; details: Homo sapiens, A549, 72 h
Description: Antiproliferative activity against human A549 cells assessed as inhibition of cell growth incubated for 72 hrs by CCK-8 assay
property: IC50 (µM)
Return type: number; implicit unit µM.

The reported IC50 value, A549, for Cc1ccc(-c2cc3[nH]cc(C(=O)N4CCC(N)CC4)c3cc2-c2ccc(C#N)cc2)cc1F reads 3.5

The reported IC50 value, A549, for CCc1ccc(-c2cc3[nH]cc(C(=O)N4CCC(N)CC4)c3cc2-c2ccc(C#N)cc2)cc1 reads 17.3

* * *

assay: AUC (0-infinity) in Sprague-Dawley rat at 10 mg/kg,po by LC-MS/MS analysis; assay type: ADME, organism-based; design: dose 10 mg/kg, route po; conditions: in vivo
property: AUC(0-inf) (ng·h/mL)
Return type: number; implicit unit ng·h/mL.

The reported AUC(0-inf) of the molecule Cc1ccc(-c2cc3c(cc2-c2ccc(C#N)cc2)c(C(=O)N2CCC(N)CC2)cn3S(=O)(=O)c2ccc(F)cc2)cc1 was 362
